- target.or.system: Troponin I, cardiac muscle (Homo sapiens) + Troponin T, cardiac muscle (Homo sapiens) + Troponin C, slow skeletal and cardiac muscles (Homo sapiens) (UniProt P19429+P45379+P63316)
- protocol.notes: cardiac RTF calcium sensitivity activators, confirmation, biochemical, IANBD-TnC fluorescence, triplicate (AID 504383);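 note: 0% = DMSO at 0.472 mM calcium and 100% = DMSO at 2.9 mM calcium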
- experimental.parameters: IANBD-labeled cardiac RTF, Ca2+ sensitivity fluorescence; at 7.2 µM; hits give high values; scaled from EC20 to saturating calcium; tested at EC20 calcium, 0.472 mM
Out of some 2,500 compounds screened, about 1,200 (48%) were called active. So high a share suggests a set chosen from earlier hits. The list shows a part of the results.
Classification by activation follows these ranges: LOW: < 6%; MEDIUM: ≥ 6% and < 30%; HIGH: ≥ 30%

compound	class.name
C=CCN1C=CC(=C/C=C(/C#N)C(=O)OCC)C=C1	LOW
CC(C)c1ccc(OCC(=O)NC(Cc2c[nH]c3ccccc23)C(=O)O)cc1 (centres undefined)	LOW
COc1cccc(/C=C(/C#N)c2nc3ccccc3[nH]2)c1OC(C)C(=O)O (centres undefined)	LOW
CCOC(=O)/C(C#N)=C\c1ccc(N2CCN(C/C=C/c3ccccc3)CC2)cc1	LOW
COC(=O)c1cc2c(C)c(C)c3ccccn3c-2c1C(=O)OC	LOW
CCOc1ccc(-c2nnc(NC(=O)CCCOc3cccc(C)c3)o2)cc1	MEDIUM
C=CCN1C=CC(=CC=C(C#N)C#N)C=C1	HIGH
CC(C)CC1C(C#N)=C(N)SC(N)=C1C#N	LOW
CCc1ccc2c(COC(=O)CNS(=O)(=O)c3ccc(NC(C)=O)cc3)cc(=O)oc2c1	HIGH
CCCN1C=CC(=CC=C(C#N)C#N)C=C1	MEDIUM
CCN(CC)CC(C(=O)N(CC)CC)P(=O)(c1ccccc1)c1ccccc1 (centres undefined)	MEDIUM
CCN(CC)c1ccc(/C=C(/C#N)c2nc3ccccc3[nH]2)c(OC(C)C)c1	HIGH
O=C(O)CN1C(=O)c2cccc3c(Br)ccc1c23	HIGH
CCN(CC)S(=O)(=O)c1ccc2[nH]c(=O)[nH]c2c1	MEDIUM
Cc1cc(C)c(C#N)c(SCc2nnc(-c3ccccc3)o2)n1	HIGH
CCOc1cc(N(CC)CC)ccc1/C=C(/C#N)c1nc2ccccc2[nH]1	LOW
Cc1ccccc1NS(=O)(=O)c1ccc(OCC(=O)N2CCCCC2)cc1	MEDIUM
Cc1ccc([C@@H]2C3COCC=C3C(C#N)=C(N)C2(C#N)C#N)o1 (some centres undefined)	MEDIUM
COc1cc(/C=C(\C#N)c2nc3ccccc3[nH]2)ccc1O	MEDIUM
CC(=O)Nc1ccc(S(=O)(=O)NCCC(=O)OCC(=O)c2cc(C)ccc2C)cc1	MEDIUM
COc1ccccc1C1=NOC(Cn2c(=O)c3c(ncn3C)n(C)c2=O)C1 (centres undefined)	MEDIUM
COc1cc(/C=C(\C#N)c2nc3ccccc3[nH]2)cc(OC)c1O	HIGH
CCN(CC)c1ccc(NC(=S)Nc2ccc(F)cc2)cc1	LOW
Cc1ccc(S(=O)(=O)Nc2ccccc2N(C)S(=O)(=O)c2ccc(C)cc2)cc1	MEDIUM
CCN(CC(=O)N1CCCC1)S(=O)(=O)c1ccc(OC)cc1	HIGH
CC(C)(C)OC(=O)N1CCC(Cc2cc(-c3cccnc3)no2)(C(=O)O)CC1	MEDIUM
COC(=O)Cn1cc(/C=C/c2cc[n+](C)cc2)c2ccccc21	MEDIUM
C#CC[N+](C)(C)CCCCCCCCCC	HIGH

====

- target.or.system: Troponin I, cardiac muscle (Homo sapiens) + Troponin T, cardiac muscle (Homo sapiens) + Troponin C, slow skeletal and cardiac muscles (Homo sapiens) (UniProt P19429+P45379+P63316)
- protocol.notes: cardiac RTF calcium sensitivity activators, confirmation, biochemical, IANBD-TnC fluorescence, triplicate (AID 504383);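 note: 0% = DMSO at 0.472 mM calcium and 100% = DMSO at 2.9 mM calcium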
- experimental.parameters: IANBD-labeled cardiac RTF, Ca2+ sensitivity fluorescence; at 7.2 µM; hits give high values; scaled from EC20 to saturating calcium; tested at EC20 calcium, 0.472 mM
The whole screen tested about 2,500 compounds, of which about 1,200 (48%) were called active. The set was probably picked from earlier hits. This is one part of the list.
Tick satisfied if activation is 10% or greater. Tick not satisfied if activation is less than 10%.

compound	class.name
CCOC(=O)c1c(C)[nH]c(C2=NNC(=NC(C)COC)SC2)c1C (configuration not stated)	satisfied
O=C(NCCNC(=O)c1cccs1)c1ccco1	satisfied
O=C(OCCN1CCCCC1)c1ccccc1Br	not satisfied
C=CCn1c(COc2cccc(C)c2)nnc1SCn1nnc2ccccc2c1=O	not satisfied
O=C(CCC1CCCN(C(=O)C2=CCCC2)C1)N1CCN(c2ccccn2)CC1 (configuration not stated)	not satisfied
O=C1NCCCCC1NS(=O)(=O)c1cccc(C(F)(F)F)c1 (configuration not stated)	not satisfied
COc1ccc(NC(=O)c2cc(C)on2)cc1OC	not satisfied
N#Cc1ccc(S(=O)(=O)NC2CCN(Cc3ccccc3)CC2)cc1	not satisfied
CN(C)c1ccc(C2C=C(c3ccc(Cl)cc3OC(F)F)Nc3ncnn32)cc1 (configuration not stated)	satisfied
Cc1cc(C(=O)O)ccc1-c1ccc(/C=C2\SC(=O)N(CC(=O)Nc3ccc4c(c3)OCO4)C2=O)o1	satisfied
CN1c2ccccc2C(O)=C(C(=S)Nc2ccc(F)c(Cl)c2)S1(=O)=O	satisfied
CC1CC(C)CN(S(=O)(=O)N2CCCC(C(=O)NC3CCCCC3)C2)C1 (configuration not stated)	satisfied
COC(=O)c1cc2c(cc1NC(=O)CSCCc1ccccn1)OCO2	not satisfied
N#Cc1ccc(S(=O)(=O)NC2CCCCNC2=O)cc1 (configuration not stated)	satisfied
Cc1c(CN2CCCC(C)C2)c(O)n(CCO)c(=O)c1C#N (configuration not stated)	satisfied
Cc1ccsc1C1C=C(c2cccc(Br)c2)Nc2ncnn21 (configuration not stated)	not satisfied
O=C(/C=C/c1cn(CC(O)CN2CCCCC2)c2ccccc12)c1cccs1 (configuration not stated)	satisfied
Cc1cc(Cn2nc(C(=O)NCC3CC3)cc2-c2ccccc2)on1	not satisfied
Cc1ccc(C(=O)Nc2ccc3c(c2)ncn3C)cc1	satisfied
CCCOc1ccc(C2C(C(=O)/C=C/c3ccco3)=C(O)C(=O)N2CCN2CCOCC2)cc1OC (configuration not stated)	satisfied
Cc1ccccc1N=Cc1cc2c(cc1O)OC(N)=C(C#N)C2c1ccccc1 (configuration not stated)	satisfied
Cc1ccc(C(=O)NN2C(=O)/C(=C/c3cccn3C)SC2=S)cc1	satisfied
COc1ccc(N=Cc2cc3c(cc2O)OC(N)=C(C#N)C3c2ccccc2)cc1 (configuration not stated)	satisfied
Nc1nc(SCC(=O)Nc2ccc(Cl)cc2)[nH]c(=O)c1-c1ccccc1	not satisfied
Cc1ccc(N2CN(Cc3cccnc3)CNC2=S)cc1	satisfied
CCNC(=O)NNC(=O)C1CC(c2cccs2)=NO1 (configuration not stated)	not satisfied
COc1ccc(/C=N/NC(=O)Cn2c(Cc3ccc(OC)c(OC)c3)nc3ccccc32)cc1	satisfied
CSCCC(NC(=O)c1ccccc1Cl)C(=O)N1CCC1 (configuration not stated)	not satisfied
COc1ccc(-c2cc(C(F)(F)F)nc(S(=O)(=O)CCCC(=O)Nc3cc(C)on3)n2)cc1OC	satisfied
COc1ccc(/C=C/C(=O)c2nc3ccccc3n2CC(=O)c2ccc(OC)cc2)cc1	not satisfied
NC(=O)c1ccccc1N/C=C/C(=O)c1ccc(Cl)cc1Cl	satisfied
CN1CCCC(OC(=O)c2ccccc2Br)C1 (configuration not stated)	satisfied
CS(=O)(=O)N(CC(=O)N/N=C/c1ccco1)c1ccccc1Br	satisfied
Cc1nc(Cl)c2c(n1)NC1=C(O2)C(=O)CCC1	satisfied
CC(=O)c1cccc(NC(=S)NC2CCCCC2)c1	not satisfied
COC(=O)c1[nH]c2ccc(C)cc2c1NC(=O)C(C)N1CCN(C2CCCCC2)CC1 (configuration not stated)	satisfied
Cn1cccc1/C=C1\SC(=S)N(NC(=O)c2ccc(Cl)cc2)C1=O	satisfied
Cc1ccc(S(=O)(=O)N2CC(C(=O)O)=CC[C@H]2c2ccc(Cl)cc2)cc1	not satisfied
Cc1ccccc1N(CC(N)=O)S(C)(=O)=O	not satisfied
CC(=O)Nc1ccccc1C(=O)C(=O)Nc1ccc(F)c(Cl)c1	not satisfied
COCc1cc(C)n(CC(=O)Nc2ccccc2C(=O)OC)c(=O)c1C#N	satisfied
COc1ccc(O)c(/C=N/c2nc3ccccc3n2C)c1	satisfied

====

- target.or.system: Troponin I, cardiac muscle (Homo sapiens) + Troponin T, cardiac muscle (Homo sapiens) + Troponin C, slow skeletal and cardiac muscles (Homo sapiens) (UniProt P19429+P45379+P63316)
- protocol.notes: cardiac RTF calcium sensitivity activators, confirmation, biochemical, IANBD-TnC fluorescence, triplicate (AID 504383);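 note: 0% = DMSO at 0.472 mM calcium and 100% = DMSO at 2.9 mM calcium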
- experimental.parameters: IANBD-labeled cardiac RTF, Ca2+ sensitivity fluorescence; at 7.2 µM; hits give high values; scaled from EC20 to saturating calcium; tested at EC20 calcium, 0.472 mM
Hit rate of the full screen: of about 2,500 compounds, about 1,200 (48%) were called active. The set was probably picked from earlier hits. Some of the results follow.
Hi, to clarify the labels: 1 covers activation from 9% upward, -1 covers anything below 9%.

compound	class.name
O=C1S/C(=C\c2ccc(N3CCOCC3)o2)C(=O)N1Cc1ccc(F)cc1	-1
COCCn1c(=NC(=O)/C=C/c2ccccc2)sc2cc(NC(C)=O)ccc21	1
O=C(c1ccccn1)N(Cc1cccs1)C1(C(=O)NC2CCCCC2)CCCCC1	-1
Cc1c(/C=N/O)c2ccccn2c1C=O	-1
COc1cccc(C2C(C#N)=C(N)Oc3cc(C)oc(=O)c32)c1OC (stereo not given)	1
